Overview of reported melting point across a group of molecules:

Some molecules with known melting point results, for comparison:
>  <Smiles Text>
Cc1cccc(-c2[nH]c(C(C)C)nc2-c2ccc(F)c(-c3ccc(NC(=O)NC4CCN(C)CC4)cc3)c2)n1

>  <melting point>
145 °C

$$$$
>  <Smiles Text>
Cc1cccc(-c2[nH]c(C(C)C)nc2-c2cccc(-c3ccc(F)cc3F)c2)n1

>  <melting point>
70 to 72 °C

$$$$
>  <Smiles Text>
Cc1cccc(-c2n[nH]cc2-c2ccc(F)c(-c3cc[nH]n3)c2)n1

>  <melting point>
105 to 108 °C

$$$$
>  <Smiles Text>
Cc1cccc(-c2n[nH]cc2-c2ccc(F)c(-c3ccc(N4CCOCC4)cn3)c2)n1

>  <melting point>
88 to 90 °C

$$$$
>  <Smiles Text>
Cc1cccc(-c2nc(C(C)C)[nH]c2-c2ccc(F)c(-c3ccc(NS(=O)(=O)C4CC4)cc3)c2)n1

>  <melting point>
119 to 129 °C

$$$$

// query For the molecule Cc1cccc(-c2[nH]c(C(C)C)nc2-c2cccc(-c3ccc(NC(=O)NN4CCOCC4)cc3)c2)n1 , give its measured melting point value.
// result 146 to 148 °C

// query For the molecule COc1ccc(-c2cccc(-c3nc(C(C)C)[nH]c3-c3cccc(C)n3)c2)cc1 , give its measured melting point value.
// result 75 to 77 °C

// query For the molecule Cc1cccc(-c2nn(C(C)C)cc2-c2ccc(F)c(-c3ccc(S(C)(=O)=O)cc3)c2)n1 , give its measured melting point value.
// result 172 to 173 °C

* * *

Overview of reported melting point across a group of compounds:

Some compounds with known melting point results, for comparison:
>  <Compound>
Cc1cccc(-c2n[nH]cc2-c2ccc(F)c(-c3cn(CCO)cn3)c2)n1

>  <melting point>
248 °C

$$$$
>  <Compound>
Cc1cccc(-c2[nH]c(C(C)C)nc2-c2cccc(-c3ccc4c(c3)C(=O)CCS4(=O)=O)c2)n1

>  <melting point>
115 to 119 °C

$$$$
>  <Compound>
Cc1cccc(-c2nc(N)sc2-c2ccc(F)c(-c3cnn(C)c3)c2)n1

>  <melting point>
153 to 155 °C

$$$$
>  <Compound>
Cc1cccc(-c2[nH]c(C(C)C)nc2-c2cccc(-c3ccc(S(C)(=O)=O)cn3)c2)n1

>  <melting point>
112 to 114 °C

$$$$
>  <Compound>
Cc1cccc(-c2[nH]c(C(C)C)nc2-c2cccc(-c3cccs3)c2)n1

>  <melting point>
73 to 76 °C

$$$$
>  <Compound>
Cc1cccc(-c2[nH]c(C(C)C)nc2-c2ccc(F)c(-c3ccc([S+](C)[O-])nc3)c2)n1 (centres unmarked)

>  <melting point>
100 to 102 °C

$$$$

// query For the compound Cc1cccc(-c2[nH]c(C(C)C)nc2-c2cccc(-c3ccc([N+](=O)[O-])cc3)c2)n1 , give its measured melting point value.
// result 95 to 105 °C

// query For the compound Cc1cccc(-c2n[nH]cc2-c2ccc(F)c(-c3ccc(C(C)(C)O)cn3)c2)n1 , give its measured melting point value.
// result 169 to 172 °C

* * *

Overview of reported melting point across a group of compounds:

Some compounds with known melting point results, for comparison:
>  <Compound>
Cc1cccc(-c2[nH]c(C(C)C)nc2-c2cccc(-c3ccc(F)cc3)c2)n1 [Example 8]

>  <Endpoint>
melting point

>  <Result>
83 to 85 °C

$$$$
>  <Compound>
Cc1cccc(-c2[nH]c(C(C)C)nc2-c2cccc(-c3ccc(C(F)(F)F)cc3)c2)n1 [Example 5]

>  <Endpoint>
melting point

>  <Result>
91 to 93 °C

$$$$
>  <Compound>
CNS(=O)(=O)c1ccc(-c2cccc(-c3nc(C(C)C)[nH]c3-c3cccc(C)n3)c2)cc1 [Example 38]

>  <Endpoint>
melting point

>  <Result>
96 to 100 °C

$$$$
>  <Compound>
Cc1cccc(-c2[nH]c(C(C)C)nc2-c2cccc(-c3ccc(S(C)(=O)=O)cc3)c2)n1 [Example 17]

>  <Endpoint>
melting point

>  <Result>
104 to 106 °C

$$$$

// query For the compound Cc1cccc(-c2[nH]c(C(C)C)nc2-c2cccc(-c3ccc(NS(C)(=O)=O)cc3)c2)n1 [Example 15] , give its measured melting point value.
// result 128 to 130 °C

// query For the compound Cc1cccc(-c2[nH]c(C(C)C)nc2-c2cccc(-c3cccc(S(C)(=O)=O)c3)c2)n1 [Example 18] , give its measured melting point value.
// result 97 to 100 °C

// query For the compound Cc1cccc(-c2[nH]c(C(C)C)nc2-c2ccc(F)c(-c3ncc[nH]3)c2)n1 [Example 134] , give its measured melting point value.
// result 201 to 205 °C

// query For the compound Cc1cccc(-c2n[nH]cc2-c2ccc(F)c(-c3ccc(OCCO)cn3)c2)n1 [Example 166] , give its measured melting point value.
// result 148 to 151 °C
